Value source: PubChem BioAssay (NCI)

Listed here are molecules together with their documented TGI.
- Tested on: OVCAR-5 ovarian
- runDescription: NCI tumour cell line growth inhibition, 48 h

The examples below pair each entry with its known result.
| molecule | assaySystem | TGI |
| --- | --- | --- |
| O=c1oc2ccccc2c(Cl)c1Cl | OVCAR-5 ovarian | 30.1 µM |
| CN(C)CCN1N=Nc2cccc3cccc1c23 | OVCAR-5 ovarian | > 100 µM |
| CCOC(=O)c1sc2ncn(Cc3cccc(Cl)c3)c(=O)c2c1C | OVCAR-5 ovarian | 31.2 µM |
| Cc1nc(C)c(N2CCN(C(=O)NC(CCC(=O)O)C(=O)O)CC2)c(=O)[nH]1 (stereo not drawn) | OVCAR-5 ovarian | > 100 µM |
| COc1cccc2c(Nc3ccc(C(=O)NCCNCCO)cc3)cc(-c3ccccc3)nc12 | OVCAR-5 ovarian | > 100 µM |

Exam item: Find the measured TGI of CCOC(=O)NC(OCCN(C)C)(C(F)(F)F)C(F)(F)F and report it.
Marked response: > 100 µM

Exam item: Find the measured TGI of CC(C)OP(=O)(OC(C)C)c1nn(-c2ccc([N+](=O)[O-])cc2)c(=N)s1 and report it.
Marked response: > 100 µM

Exam item: Find the measured TGI of NCCCn1c2c(c3ccccc3c1=O)C(=O)c1cc3c(cc1-2)OCO3 and report it.
Marked response: 4.08 µM

---

Listed here are molecules together with their documented TGI.
- Tested on: IGROV1 ovarian
- runDescription: NCI tumour cell line growth inhibition, 48 h

The examples below pair each entry with its known result.
| molecule | quantityKind | measuredValue |
| --- | --- | --- |
| [N-]=[N+]=NC1(c2ccccc2)C(=O)c2cccc3c4ccccc4n(c23)C1=O (stereo not drawn) | TGI | > 100 µM |
| COc1c2c(c(OC)c3c(=O)cc(C/C(=N/NC(=O)C[n+]4ccccc4)C(=O)Nc4cc(C)ccc4C)oc13)OCO2 | TGI | > 100 µM |

Exam item: Find the measured TGI of N#Cc1cccc(Nc2ccccc2SSc2ccccc2Nc2cccc(C#N)c2)c1 and report it.
Marked response: 16.9 µM

---

Listed here are compounds together with their documented TGI.
- System: HCT-15 colon
- runDescription: NCI tumour cell line growth inhibition, 48 h

The examples below pair each entry with its known result.
| compound | assaySystem | TGI |
| --- | --- | --- |
| Cc1ccc(/C(O)=C/c2nc3ccccc3nc2NC23CC4CC(CC(C4)C2)C3)cc1 | HCT-15 colon | > 10 µM |
| CCOC(=O)/C(=C\NC[C@@H](C)O)c1nc2ccccc2[nH]1 | HCT-15 colon | > 100 µM |
| NC(=O)c1csc(C2O[C@@H](COP(=O)(O)OP(=O)(O)OC[C@H]3OC(n4cnc5c(N)ncnc54)[C@H](O)[C@@H]3O)[C@H](O)[C@@H]2O)n1 (stereo not given in full) | HCT-15 colon | > 100 µM |
| CN(C(=O)C12C3C4C1C1C2C3C41C(=O)O)C(C)(C)C (stereo not given) | HCT-15 colon | > 100 µM |

Query compound follows.
Exam item: Find the measured TGI of COC(=O)C1=C(C(=O)OC)C2(c3ccccc3)c3ccccc3C(=O)C1N2C1CCCCC1 (stereo not given) and report it.
Marked response: > 100 µM

---

- System: DU-145 prostate
- runDescription: NCI tumour cell line growth inhibition, 48 h
quantityKind: TGI

| compound | TGI |
| --- | --- |
| O=P(Oc1ccccc1)(Oc1ccccc1)C(O)c1ccccc1 (centres undefined) | > 100 µM |
| O=S(=O)(O)c1cccc2ccc(O)c(N=Nc3ccc(S(=O)(=O)c4ccc(N=Nc5c(O)ccc6cccc(S(=O)(=O)O)c56)cc4)cc3)c12 | > 100 µM |
| O=C1NC(=O)C2=C1CCC2O (centres undefined) | > 100 µM |

Query compound follows.
Exam item: Please report the measured TGI for Nc1ccc2c(c1)N(C(=O)CCCC(=O)N1CC(CCl)c3ccc(N)cc31)CC2CCl (centres undefined) tested on DU-145 prostate.
Marked response: > 21 µM

---

Listed here are compounds together with their documented TGI.
- Test system: HCC-2998 colon
- runDescription: NCI tumour cell line growth inhibition, 48 h

The examples below pair each entry with its known result.
| compound | measuredValue |
| --- | --- |
| COC1CCC2C(=O)CCCC2O1 (stereo not given) | > 100 µM |
| COC(=O)C(=O)C(C(=O)C(=O)Nc1ccc([N+](=O)[O-])cc1[N+](=O)[O-])c1nc2ccc([N+](=O)[O-])cc2[nH]c1=O (stereo not given) | > 100 µM |
| O=C(Nc1ncc([N+](=O)[O-])s1)c1cccc([N+](=O)[O-])c1 | > 100 µM |
| CN(C)Cc1cc(N=Nc2c(Cl)cccc2Cl)ccc1O | > 100 µM |

Exam item: Find the measured TGI of CC(=O)O[C@H]1CC[C@@]2(C)C(=CC[C@H]3[C@@H]4C[C@H](N5CCN(C)CC5)[C@H](OC(C)=O)[C@@]4(C)CC[C@@H]32)C1 and report it.
Marked response: 30.1 µM

Exam item: Find the measured TGI of CCC12CCC(O)C1N(C)CCC2Sc1ccccc1 (stereo not given) and report it.
Marked response: 94.8 µM

Exam item: Find the measured TGI of C=C[C@@]1(C)CC(=O)[C@]2(O)[C@@]3(C)[C@@H](OC(C)=O)CCC(C)(C)[C@@H]3[C@H](O)[C@H](OC(C)=O)[C@@]2(C)O1 and report it.
Marked response: > 100 µM

---

- Tested on: OVCAR-8 ovarian
- runDescription: NCI tumour cell line growth inhibition, 48 h
quantityKind: GI50

The examples below pair each entry with its known result.
| smilesData | GI50 |
| --- | --- |
| CS(=O)(=O)c1ccc(Oc2nccc(-c3c(-c4ccc(F)cc4)ncn3C3CCNCC3)n2)cc1 | > 25 µM |
| Clc1ccc(Nc2ccnc(NCCNc3ccnc4cc(Cl)ccc34)n2)cc1 | 1.59 µM |
| O=C(Nc1cccc(C2=NCCN2)c1)c1ccc(OCCCOc2ccc(C(=O)Nc3cccc(C4=NCCN4)c3)cc2)cc1 | 4.03 µM |

Query compound follows.
Exam item: Find the measured GI50 of Clc1ccc(N2COOC3(OOC2)C2CC4CC(C2)CC3C4)cc1 and report it.
Marked response: 14.4 µM

---

Listed here are molecules together with their documented TGI.
- Test system: SK-MEL-5 melanoma
- runDescription: NCI tumour cell line growth inhibition, 48 h

| molecule | TGI |
| --- | --- |
| O=c1oc2ccccc2cc1-c1nc2ccccc2c(=O)[nH]1 | > 100 µM |

Exam item: Find the measured TGI of O=c1ccc(-c2ccc(-n3ccnc3)cc2)nn1CCO and report it.
Marked response: > 100 µM

Exam item: Find the measured TGI of CC1(c2ccccc2)CC12C(=O)NC(=O)NC2=O (stereo not drawn) and report it.
Marked response: > 100 µM

---

- Test system: MALME-3M melanoma
- runDescription: NCI tumour cell line growth inhibition, 48 h
quantityKind: TGI

The examples below pair each entry with its known result.
| compound | quantityKind | measuredValue |
| --- | --- | --- |
| COc1ccc(-c2c(C#N)c(N)n(C3OCC(O)C(O)C3O)c(=S)c2C#N)cc1 (stereo not drawn) | TGI | > 100 µM |
| COP(=N[Si](C)(C)C)(OC)OC | TGI | > 100 µM |

Query compound follows.
Exam item: Find the measured TGI of O=C1NC(=O)C2=C1CCC2O (stereo not drawn) and report it.
Marked response: > 100 µM

---

- Test system: SR leukemia
- runDescription: NCI tumour cell line growth inhibition, 48 h
quantityKind: TGI

The examples below pair each entry with its known result.
| compound | TGI |
| --- | --- |
| COc1cccc(N2C(=O)CSC2c2c[nH]c3ccccc23)c1 (stereo not drawn) | > 100 µM |
| COC(=O)C1Cc2c(n(C)c3ccccc23)C(c2ccccc2)N1 (stereo not drawn) | > 100 µM |

Exam item: Find the measured TGI of COc1cccc2c1C(=O)c1c(O)c3c(c(O)c1C2=O)CC(O)(C(C)=O)CC3OC1CC([N+](C)(C)C)C(O)C(C)O1 (stereo not drawn) and report it.
Marked response: > 100 µM

---

- System: COLO 205 colon
- runDescription: NCI tumour cell line growth inhibition, 48 h
quantityKind: TGI

The examples below pair each entry with its known result.
| molecule | TGI |
| --- | --- |
| O=NN(CCCl)C(=O)NCc1ccc[n+]([O-])c1 | > 100 µM |
| NS(=O)(=O)c1ccc(NC(=S)/N=C/c2c(O)c3ccccc3[nH]c2=O)cc1 | > 100 µM |
| COc1ccc(-c2cc(-c3ccccc3)c3c(n2)-c2ccccc2NC(=O)C3)cc1 | > 100 µM |
| Cc1cccc(/C=N/NC(=S)NC2CCCCC2)n1 | > 100 µM |
| CCOC(=O)Nn1cnnc1Cc1ccccc1 | > 100 µM |

Exam item: Find the measured TGI of CC1=CCP(C(F)(F)F)P(C(F)(F)F)C1 (stereo not given) and report it.
Marked response: > 100 µM

Exam item: Find the measured TGI of O=C(O)C(Cc1ccccc1-c1ccccc1)C(=O)O and report it.
Marked response: > 100 µM

Exam item: Find the measured TGI of c1ccc2nc3c(nc2c1)sc1nc2ccccc2n13 and report it.
Marked response: > 100 µM

Exam item: Find the measured TGI of O=C(Oc1cccc(Nc2ncnc3ccccc23)c1)c1ccccc1Cl and report it.
Marked response: > 100 µM

Exam item: Find the measured TGI of O=C1NC(=O)C2=C1CCC2O (stereo not given) and report it.
Marked response: > 100 µM

Exam item: Find the measured TGI of O=c1cnn(C/C=C/CP(=O)(O)O)c(=O)[nH]1 and report it.
Marked response: > 100 µM

Exam item: Find the measured TGI of COc1cc(/C=C2\N=C(c3ccccc3)N(c3ccc(S(=O)(=O)Nc4nccs4)cc3)C2=O)ccc1O and report it.
Marked response: > 100 µM

Exam item: Find the measured TGI of O=S(=O)(O)c1cc(S(=O)(=O)O)c2c(N=Nc3ccccc3)c(O)ccc2c1 and report it.
Marked response: > 100 µM

Exam item: Find the measured TGI of O=[N+]([O-])c1ccc(OCCNc2cccc3ccccc23)cc1 and report it.
Marked response: > 100 µM

Exam item: Find the measured TGI of CC(C)C(=O)CC(Sc1ccc(N)cc1)c1ccccc1 (stereo not given) and report it.
Marked response: > 100 µM

Exam item: Find the measured TGI of O=C1CCCSCCCC(=O)CCCSCCC1 and report it.
Marked response: > 100 µM

Exam item: Find the measured TGI of O=c1oc2ccccc2cc1-c1nc2ccccc2c(=O)[nH]1 and report it.
Marked response: > 100 µM
